- TARGET_OR_SYSTEM: T1, human Trop-2 expressed on cell surface (human, UniProt P09758 27-323)
- T1 sequence (looked up): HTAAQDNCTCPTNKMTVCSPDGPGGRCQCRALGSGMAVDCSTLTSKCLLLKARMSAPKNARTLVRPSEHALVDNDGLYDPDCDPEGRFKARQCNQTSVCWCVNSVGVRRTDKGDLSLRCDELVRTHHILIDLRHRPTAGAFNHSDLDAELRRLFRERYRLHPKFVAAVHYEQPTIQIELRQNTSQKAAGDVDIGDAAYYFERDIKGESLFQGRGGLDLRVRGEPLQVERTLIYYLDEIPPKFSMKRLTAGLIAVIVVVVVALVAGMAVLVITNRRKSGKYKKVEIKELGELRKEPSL
- ASSAY_NAME: cell-based or functional assay
OUTCOME_MEASURE: Internalization %, MCF-7, 0.25 µg/ml, 2 h (%)
Dear colleague, please return just the value in %, with no unit written.

Please report the recorded Internalization %, MCF-7, 0.25 µg/ml, 2 h for 9F7 (antibody, V domains shown, Rabbit-derived clone; LEM construct: VH + rabbit IgG CH1 + human IgG1 CH2-CH3) VH: QEQLKESGGGLVQPGGSLTLSCKASGFDFNNYGVSWVRQAPGKGLEWIGYIYPAYHNTYYATWVNGRFTISSHNAQNTLYLQLNTLTAADTATYFCARDTGSTDYNFNLWGPGTLVTVSS VL: DVVMTQTPASVEVAVGGTVTIKCQASEDIESYLAWYQQKPGQPPKLLIYEASKLASGVSSRFSGGGYGTEFTLTISGVECADAATYYCQQALTVGNVDNPFGGGSEVVVK . 31

Please report the recorded Internalization %, MCF-7, 0.25 µg/ml, 2 h for 63H3 (antibody, V domains shown, Rabbit-derived clone; LEM construct: VH + rabbit IgG CH1 + human IgG1 CH2-CH3) VH: QEQLKESGGGLVQPGGSLKLSCKASGFDFNSYGVSWVRQAPGKGLEWIAYIYPAFHNAYYANWVNGRFTISSDNAQNTVDLQLNSLTAADTATYFCARDAGGTDYNYNLWGPGTLVTVSS VL: DVVMTQTPASVEVAVGGTVTLKCQASEDIESYSAWYQQKPGQPPNLLIYEASKLASGVSSRFSGSGYGTEFTLTISGVECADAATYYCQQALTIGNVDNPFGGGSEVVVR . 26

Please report the recorded Internalization %, MCF-7, 0.25 µg/ml, 2 h for 74F11/15F5 (antibody, human IgG1, V domains shown, LEM construct: VH + rabbit IgG CH1 + human IgG1 CH2-CH3) VH: QEQLKESGGGLVQPGGSLKLSCKASGFDFNNYGMSWVRQAPGKGLEWIAYIYPAFHNTYYANWVNGRFTISSDNAQNTVDLQLNSLTAADTATYFCARDAGSTDYNFNLWGPGTLVTVSS VL: DVVMTQTPASVEAAVGGTVTIKCQASEDIERYLAWYQQKPGQPPKLLIYEASKLPSGVSSRFSGSGYGTEFTLTISGVECADAATYYCQQALTIGYVDNPFGGGSEVVVK . 35

Please report the recorded Internalization %, MCF-7, 0.25 µg/ml, 2 h for 5D4-2 (antibody, V domains shown) VH: QQLEESGGGLVKPEGSLTLTCKGSGFDFSGTYWMWWVRQAPGKGLEWIASIYVGSGSSTYYASWAKGRFTISSTSSTAVTLQATSLTAADTATYFCARGATNNVFMNYFNLWGPGTLVTVSS VL: FEMTQTPSSVSEPVGGTVTIKCQASEDISSNLGWYQQKPGQPPKLLIYGASTLASGVPSRFKGSGSGTEFTLTISDLEAADAATYYCQTSYYIDDGVNGFGGGTEVVVK . 67

Please report the recorded Internalization %, MCF-7, 0.25 µg/ml, 2 h for 5D4 (antibody, V domains shown, Rabbit-derived clone; LEM construct: VH + rabbit IgG CH1 + human IgG1 CH2-CH3) VH: QQLEESGGGLVKPEGSLTLTCKGSGFDFSGTYWMWWVRQAPGKGLEWIACIYVGSGSSTYYASWAKGRFTISSTSSTAVTLQATSLTAADTATYFCARGATNNVFMNYFNLWGPGTLVTVSS VL: FEMTQTPSSVSEPVGGTVTIKCQASEDISSNLGWYQQKPGQPPKLLIYGASTLASGVPSRFKGSGSGTEFTLTISDLECADAATYYCQTSYYIDDGVNGFGGGTEVVVK . 52

Please report the recorded Internalization %, MCF-7, 0.25 µg/ml, 2 h for 9D7-2 (antibody, V domains shown) VH: QSLEESGGDLVQPGASLTLTCKASGFDLNNYSILWVRQAPGKGLEWIGSIYISGGSTYYANWAKGRFAISKTSSTTVTLQMTSLTAADTATYFCARDDGTASYYLNLWGPGTLVTVSS VL: YDMTQTPASVSEPVGGTVTIKCQASEDIYKLLAWYQQKPGQPPKLLIYAASDLESGVPSRFKGRGSGTDYTLTISDLEAADAATYYCQQAYTIGNIDNSFGGGTEVVVK . 42

Please report the recorded Internalization %, MCF-7, 0.25 µg/ml, 2 h for 66A1 (antibody, V domains shown, Rabbit-derived clone; LEM construct: VH + rabbit IgG CH1 + human IgG1 CH2-CH3) VH: QEQLKESGGGLVQPGGSLKLSCKASGFDFNNYGVSWVRQAPGKGLEWIAYIYPAFHNTYYASWVNGRFTISSHNAQNTLYLQLNSLTAADTATYFCARDAGGTDYAYNLWGPGTLVTVSS VL: DVVMTQTPASVEAAVGGTVSINCQASEDIESYLAWYQQKPGQPPKLLIYKASTLASGVSSRFKGSGSGKQFTLTISGVECADAATYYCQQVLTIGNVDNPFGGGSEVVVK . 36

Please report the recorded Internalization %, MCF-7, 0.25 µg/ml, 2 h for 1D10 (antibody, V domains shown, Rabbit-derived clone; LEM construct: VH + rabbit IgG CH1 + human IgG1 CH2-CH3) VH: QEQLKESGGGLVQPGGSLTLSCKASGFDFNYYGVSWVRQAPGKGLEWIGYIYPAYHNTYYATWVNGRFTISSHNAQNTLYLQLNTLTAADTATYFCARDAGSTDYNLNLWGPGTLVTVSS VL: DVVMTQTPASVEVAVGGTVTIKCQASEDIESYLAWYQQKPGQPPRLLIYEASKLASGVSSRFSGGGYGTDFTLTISGVECADAATYYCHQALTIGNVDNPFGGGGEVVVK . 56

Please report the recorded Internalization %, MCF-7, 0.25 µg/ml, 2 h for 10A9-2 (antibody, V domains shown) VH: QSLEESGGDLVQPGASLTLTCKASGFDLNNYAMLWVRQAPGKGLEWIGSIYISGGTTYFASWATGRFAISKTSSTTVTLQMTSLTAADTATYFCARDDGTTSYYLNLWGPGTLVTVSS VL: YDMTQTPASVSAAVGGTVTIKCQASEDIYSLLAWYQQKPGQPPKLLIYGASNLESGVPSRFKGSGSGTEYTLTISDLEADDAATYYCQQAYTIGNIDNAFGGGTEVVVK . 37

Please report the recorded Internalization %, MCF-7, 0.25 µg/ml, 2 h for 10A9 (antibody, V domains shown, Rabbit-derived clone; LEM construct: VH + rabbit IgG CH1 + human IgG1 CH2-CH3) VH: QSLEESGGDLVQPGASLTLTCKASGFDLNNYAMLWVRQAPGKGLEWIGCIYISGGTTYFASWATGRFAISKTSSTTVTLQMTSLTAADTATYFCARDDGTTSYYLNLWGPGTLVTVSS VL: YDMTQTPASVSAAVGGTVTIKCQASEDIYSLLAWYQQKPGQPPKLLIYGASNLESGVPSRFKGSGSGTEYTLTISDLECDDAATYYCQQAYTIGNIDNAFGGGTEVVVK . 33
